- ASSAY_SYSTEM: Factor X (FX), P00742
- Sequence (P00742 whole entry, looked up): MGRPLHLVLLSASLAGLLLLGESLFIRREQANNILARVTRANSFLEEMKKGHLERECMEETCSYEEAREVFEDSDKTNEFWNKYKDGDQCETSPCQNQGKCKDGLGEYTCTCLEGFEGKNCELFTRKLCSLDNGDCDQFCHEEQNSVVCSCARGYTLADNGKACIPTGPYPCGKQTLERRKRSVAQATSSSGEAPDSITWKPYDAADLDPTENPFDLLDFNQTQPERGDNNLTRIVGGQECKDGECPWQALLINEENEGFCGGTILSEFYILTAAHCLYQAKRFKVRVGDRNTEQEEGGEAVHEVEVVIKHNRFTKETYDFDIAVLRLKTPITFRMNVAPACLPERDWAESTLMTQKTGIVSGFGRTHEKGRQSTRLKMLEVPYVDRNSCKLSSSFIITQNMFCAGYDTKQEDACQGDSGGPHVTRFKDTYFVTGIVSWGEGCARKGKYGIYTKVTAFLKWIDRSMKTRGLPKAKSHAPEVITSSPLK

{"PROTEIN": "FIXa variant I251S/R318Y/R338E/E410N (protein) chain 1: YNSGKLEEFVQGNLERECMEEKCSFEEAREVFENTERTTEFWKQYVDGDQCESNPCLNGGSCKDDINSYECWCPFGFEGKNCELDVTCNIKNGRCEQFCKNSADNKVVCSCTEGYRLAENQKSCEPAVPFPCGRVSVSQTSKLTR chain 2: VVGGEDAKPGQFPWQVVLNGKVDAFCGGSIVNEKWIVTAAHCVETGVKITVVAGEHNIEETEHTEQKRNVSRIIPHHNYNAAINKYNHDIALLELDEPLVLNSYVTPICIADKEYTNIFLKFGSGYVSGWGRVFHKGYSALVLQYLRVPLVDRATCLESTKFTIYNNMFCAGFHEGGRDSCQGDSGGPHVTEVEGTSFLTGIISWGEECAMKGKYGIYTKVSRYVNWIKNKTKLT", "UNIT_LABEL": "s⁻¹", "kcat": 6.4}
{"PROTEIN": "FIXa-D203N/F205T/R318Y (protein) chain 1: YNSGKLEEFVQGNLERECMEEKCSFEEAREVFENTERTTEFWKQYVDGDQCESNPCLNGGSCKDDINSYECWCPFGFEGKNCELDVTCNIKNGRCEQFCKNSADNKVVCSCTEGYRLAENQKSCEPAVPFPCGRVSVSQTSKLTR chain 2: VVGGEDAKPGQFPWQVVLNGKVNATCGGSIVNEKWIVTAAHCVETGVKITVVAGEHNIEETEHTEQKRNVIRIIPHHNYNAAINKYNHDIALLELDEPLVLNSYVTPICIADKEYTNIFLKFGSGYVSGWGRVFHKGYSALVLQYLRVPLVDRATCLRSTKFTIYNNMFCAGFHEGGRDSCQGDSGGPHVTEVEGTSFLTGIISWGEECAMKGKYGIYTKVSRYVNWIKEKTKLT", "UNIT_LABEL": "s⁻¹", "kcat": 0.9}
